These measurements were taken from ChEMBL document CHEMBL1909294.

Observed DILI positive/negative, system Hepatotoxicity.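 Note: DILI positive or negative labels from the LTKB-BD benchmark dataset, used as the validation set for the DILIps liver injury prediction system.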
endpoint: DILI positive/negative

{"columns": ["molecule", "endpoint", "reported-measurement"],
 "data": [
  ["CCCCN1C(=O)[C@@H]([C@H](O)C2CCCCC2)NC(=O)C12CCN(Cc1ccc(Oc3ccc(C(=O)O)cc3)cc1)CC2 [APLAVIROC]", "DILI positive/negative", 1],
  ["COc1cccc2c1[C@@H]1CN(CCCCn3c(=O)[nH]c4c(sc5ncc(-c6ccccc6)nc54)c3=O)C[C@@H]1CO2 [FIDUXOSIN]", "DILI positive/negative", 1],
  ["NC(=O)OCC(COC(N)=O)c1ccccc1 [FELBAMATE]", "DILI positive/negative", 1],
  ["COc1ccc2c(C(=O)c3ccc(Cl)cc3)c(C)n(CC(=O)O)c2c1 [CLOMETACIN]", "DILI positive/negative", 1]
]}
